A compilation of published pIC50 results with BTK (Homo sapiens).
pIC50: −log10 of the molar value.
readout label: pIC50

Reference set, count: 4
compound=COC[C@]1(C)Nc2c(cnc3[nH]cc(C(=O)c4ccc(Oc5ncccc5Cl)cc4Cl)c23)NC1=O readout_label=pIC50 measured_number=7.95
compound=COCCN1C(=O)[C@](C)(COC)Nc2c1cnc1[nH]cc(C(=O)c3ccc(Oc4ccccc4)cc3Cl)c21 readout_label=pIC50 measured_number=7.45
compound="O=C(c1ccc(Oc2ccccc2)cc1Cl)c1c[nH]c2ncc3c(c12)NC1(CCN(C(=O)C2CC2)C1)C(=O)N3 (stereo not shown)" readout_label=pIC50 measured_number=7.15
compound=COC[C@]1(C)Nc2c(cnc3[nH]cc(C(=O)c4ccc(Oc5ccccc5)cc4Cl)c23)N=C1SC readout_label=pIC50 measured_number=6.91

P. O=C(c1ccc(Oc2ccccc2)cc1)c1c[nH]c2nccc(N[C@H]3CC[C@@H](CO)CC3)c12
Q. C=CC(=O)N(C)CC#Cc1c(N)ncnc1-c1cc(F)cc(-n2ncc3cc(C(C)(C)C)cc(F)c3c2=O)c1
R. COCC1(C)Nc2c(cnc3[nH]cc(C(=O)c4ccc(Oc5cc(C)ccn5)cc4Cl)c23)NC1=O (single isomer, unassigned)
## Input Ascending by pIC50, please: list the compounds accordingly. Output spec: a listing of the labels in the requested order.
## Output P, R, Q
(P: 7.10, R: 8.20, Q: 8.64)

###

A compilation of published IC50 results with BTK (Homo sapiens).
readout label: IC50 (nM)

smiles_record=COC[C@]1(C)Nc2c(cnc3[nH]cc(C(=O)c4ccc(F)c(F)c4Cl)c23)NC1=O measured_number=3.9

a. N[C@H]1CC[C@@H](Nc2ccnc3[nH]cc(C(=O)c4ccc(Oc5ccccc5)cc4Cl)c23)CC1
b. O=C(/C=C/CN1CCOCC1)Nc1cc2cc(c1)Nc1nccc(n1)-c1cccc(c1)COC/C=C/COC2
c. CC1(C)Nc2c(cnc3[nH]cc(C(=O)c4ccc(Oc5ccccc5)cc4Cl)c23)N(CCO)C1=O
## Input Ascending by IC50, please: list the molecules accordingly. Output spec: a listing of the labels in the requested order.
## Output a, b, c
(a: 2.8 nM, b: 40 nM, c: 57.4 nM)

###

pIC50: −log10 of the molar value.
A compilation of published pIC50 results with BTK (Homo sapiens).
readout label: pIC50

Reference set, count: 4
molecule=C=CC(=O)NCC#Cc1c(N)ncnc1-c1cc(F)cc(-n2ccc3cc(C4CC4)cc(F)c3c2=O)c1C readout_label=pIC50 measured_number=7.47
molecule="O=C(c1ccc(Oc2ccccc2)cc1Cl)c1c[nH]c2ncc3c(c12)N[C@@]1(CCOC1)C(=O)N3 (single isomer, unassigned)" readout_label=pIC50 measured_number=7.17
molecule=CN(C)C/C=C/C(=O)Nc1cc2cc(c1)Nc1nccc(n1)-c1cccc(c1)COC/C=C/COC2 readout_label=pIC50 measured_number=7.32
molecule="O=C(c1ccc(Oc2ccccc2)cc1Cl)c1c[nH]c2ncc3c(c12)N[C@]1(CC[C@H](O)C1)C(=O)N3 (single isomer, unassigned)" readout_label=pIC50 measured_number=8.30

I. COC[C@]1(C)Nc2c(cnc3[nH]cc(C(=O)c4cc(F)ccc4Cl)c23)NC1=O
II. CCSC1=Nc2cnc3[nH]cc(C(=O)c4ccc(Oc5ccccc5)cc4Cl)c3c2N[C@@]1(C)COC
## Input Choose between I and II : whose measured pIC50 value is numerically larger? // return label of chosen record
## Output I
